What Percent Effect was measured for each of the following?
Biological target: AMP-activated protein kinase, AMPK (Homo sapiens) (UniProt P54646+O43741+P54619+Q9UGJ0+Q9Y478+Q13131+Q9UGI9)
Experiment: AMP-dependent Kinase enzyme assay. An in vitro enzyme assay that detects ADP turnover that is directly proportional to AMPK activity. This uses naive AMPK that is activated during the assay with MK-8722
Assay type: functional
Set-up: scale not given: direction of the effect not stated beside the values
Conditions: 30 µM
State just the number; it will be interpreted in %.

Which Percent Effect is reported for this compound? Cc1cc(C[S+]([O-])Cc2ccccc2F)no1 (stereo unspecified)
13.9

Which Percent Effect is reported for this compound? CNC(=O)c1[nH]nc2c1CN(c1cc(C3CCCNC3)nc(C)n1)CC2 (stereo unspecified)
18.4

Which Percent Effect is reported for this compound? CN(C)C(C(=O)N1CCC(c2ncc[nH]2)CC1)c1ccc2c(c1)OCO2 (stereo unspecified)
1.17

Which Percent Effect is reported for this compound? `Cc1ccc(S(=O)(=O)N2CCN(Cc3ccncc3)CC2)c(Cl)c1`
-6.37

Which Percent Effect is reported for this compound? OC(c1cnn(-c2ccccc2)c1)C(F)(F)F (stereo unspecified)
-6.83

Which Percent Effect is reported for this compound? CCN(CC)C(CNC(=O)c1ccc(-n2cncn2)cc1)c1ccsc1 (stereo unspecified)
-4.43

* * *

What Percent Effect was measured for each of the following?
Target: Proteasome subunit beta (Trypanosoma cruzi)
Assay: Trypanosoma cruzi proteasome chymotrypsin-like activity (TcProtChymo) assay. Also: in the data most compounds retested in dose-response had high values.
Assay type: functional
Set-up: scale not given: direction of the effect not stated beside the values
Details: 9.37 µM
State just the number; it will be interpreted in %.

Which Percent Effect is reported for this compound? `Cn1ccc(C(=O)NCc2cccc(NC(=O)C3CCC3)c2)cc1=O`
12.3

Which Percent Effect is reported for this compound? `O=c1[nH][nH]cc1-c1ccnc(NCCN2CCCC2)n1`
7.38

Which Percent Effect is reported for this compound? Cc1nc(CN(C)C2CCN(CCCOc3ccccc3)C2)no1 (centres undefined)
20.9

Which Percent Effect is reported for this compound? CCCC(=O)N1CCC2(CC1)CC(NC(C)=O)c1ccccc1O2 (centres undefined)
-0.0858

Which Percent Effect is reported for this compound? OC(COc1ccc(F)cc1)CN1CCC(Cn2cccn2)CC1 (centres undefined)
6.14

Which Percent Effect is reported for this compound? CC(C)OCCN(C)C(C)c1cccc(S(N)(=O)=O)c1 (centres undefined)
1.05

Which Percent Effect is reported for this compound? `COc1ccc(OC)c(Sc2ncccc2C(=O)N(C)CCC#N)c1`
15.5

Which Percent Effect is reported for this compound? `CCS(=O)(=O)N(C)CC(=O)Nc1ccc(Br)cn1`
18.2

Which Percent Effect is reported for this compound? COc1cc(N2CCCC(c3nccn3Cc3cscn3)C2)nc(N)n1 (centres undefined)
15.1

Which Percent Effect is reported for this compound? CCCC(C)C(=O)N1CCC(n2cccc2C(=O)OC)CC1 (centres undefined)
2.46

Which Percent Effect is reported for this compound? `Cc1ncncc1C(=O)Nc1cnn(CC(=O)NC2CCCC2)c1`
10.8

Which Percent Effect is reported for this compound? `COC(=O)c1cccn1C1CCN(CC(=O)NC2CCCCC2)CC1`
13.5

Which Percent Effect is reported for this compound? CC(C)(C)c1nnc(CN2CCCC(Cn3cncn3)C2)o1 (centres undefined)
-1.79

Which Percent Effect is reported for this compound? Fc1cccnc1CN1CCCCC1c1ccn2ccnc2n1 (centres undefined)
11.8

Which Percent Effect is reported for this compound? NC[C@H]1CC[C@H](C(NC(=O)c2ccccc2)c2ccccn2)CC1 (some centres undefined)
13.3

Which Percent Effect is reported for this compound? Cc1cc(C(=O)NCC(C)N2CCc3ccccc32)no1 (centres undefined)
0.175

Which Percent Effect is reported for this compound? O=C1CC2(CCN(S(=O)(=O)c3cccs3)C2)CN1c1ccccc1 (centres undefined)
2.83

Which Percent Effect is reported for this compound? `CC(C)c1cc(N2CCC(N)CC2)n2nccc2n1`
20.6

Which Percent Effect is reported for this compound? `CCN1CCC2(C=C(C(=O)NC3CC3)c3ccccc32)CC1`
-2.49

Which Percent Effect is reported for this compound? CCc1nc(CN(C)C2CCN(CCNS(=O)(=O)CC)C2)no1 (centres undefined)
18.1

Which Percent Effect is reported for this compound? `CNC(=O)N1C[C@H]2C[C@H](C(=O)Nc3ccccc3)[C@@H](C1)O2`
11.7

Which Percent Effect is reported for this compound? `O=C1COC2(CCN(C(=O)c3ccco3)CC2)CN1Cc1ccccn1`
8.84

Which Percent Effect is reported for this compound? `Cc1noc(C)c1CC(=O)OCC(=O)N1CCc2sccc2C1`
14.3

Which Percent Effect is reported for this compound? `Cn1cc(CN2CCCC23CCN(C(=O)c2cccn2C)CC3)cn1`
-0.441

* * *

Species: Homo sapiens
Assay: To identify inhibition of the IFN signalling (Jak-Stat) pathway via expression of an eGFP reporter gene under the control of an IFN-stimulated response element (ISRE) containing MxA promoter.
Type: functional
Set-up: scale not given: direction of the effect not stated beside the values
Details: 30 µM
What Percent Effect was measured for each of the following?
State just the number; it will be interpreted in %.

Which Percent Effect is reported for this compound? Cc1cc(C)n(CC2CCCN2CCS(=O)(=O)c2ccccc2)n1 (stereo not drawn)
18.7

Which Percent Effect is reported for this compound? CC(C)C(NC(=O)N1CCN(c2ccc(Cl)cc2)CC1)C(=O)NC1CC1 (stereo not drawn)
21.7

Which Percent Effect is reported for this compound? `Fc1cccc(-c2nc(CN3CCn4c(nnc4C4CC4)C3)co2)c1`
19

Which Percent Effect is reported for this compound? Cn1c(CN2CCCC2c2noc(C3CC3)n2)cc(=O)n(C)c1=O (stereo not drawn)
13.9

Which Percent Effect is reported for this compound? O=C(c1cc(C2CC2)[nH]n1)N1CCCC(n2cncn2)C1 (stereo not drawn)
-13.2

Which Percent Effect is reported for this compound? Cc1cnn(CC2CCCN2CC(=O)Nc2cc(C(C)(C)C)no2)c1 (stereo not drawn)
2.79

Which Percent Effect is reported for this compound? CC(C)NC(=O)C1CN(C(=O)N2CCCC2)CC12CCOCC2 (stereo not drawn)
5.24

Which Percent Effect is reported for this compound? `Cn1cnc2c1CCN(Cc1cccc(C(N)=O)c1)C2`
7.29

Which Percent Effect is reported for this compound? `Cc1occc1C(=O)N1CC[C@@H](N2CCOCC2)[C@@H]1Cc1ccccc1`
0.411

Which Percent Effect is reported for this compound? Clc1ccccc1-c1nc(CNC2CCc3ncnn3C2)cs1 (stereo not drawn)
-12

Which Percent Effect is reported for this compound? `CN(C)C(=O)N1C[C@H]2CCC[C@@]2(COc2ccccn2)C1`
6.85

Which Percent Effect is reported for this compound? Cc1nn(C)c(N(C)C)c1CNC(C)c1cccc(OC(C)C)c1 (stereo not drawn)
15.4

Which Percent Effect is reported for this compound? `CN1CCCn2c(nc(CNC(=O)c3ccsc3)cc2=O)C1`
-5.79

Which Percent Effect is reported for this compound? NC(=O)C1(CCCc2cccnc2)CCCN(c2ncccn2)C1 (stereo not drawn)
8.71

Which Percent Effect is reported for this compound? Cc1cnn(CC2CCCCN2C(=O)c2cc(Cl)c[nH]2)c1 (stereo not drawn)
15.7

Which Percent Effect is reported for this compound? `O=C(NCC(=O)N1CCCCC1)c1ccoc1`
18.2

Which Percent Effect is reported for this compound? Cc1cnn(C2CCCN(C(=O)c3sccc3C#N)C2)c1 (stereo not drawn)
30.2

Which Percent Effect is reported for this compound? `CC(C)N1CCO[C@H]2CN(C(=O)c3ccoc3)C[C@H]21`
0.754

Which Percent Effect is reported for this compound? FC(F)(F)Cn1ccnc1CN1CCCC1c1noc(C2CC2)n1 (stereo not drawn)
16.6

Which Percent Effect is reported for this compound? `CC(C)n1ccnc1CN1CCCN(C(=O)c2nccnc2N)CC1`
1.4

Which Percent Effect is reported for this compound? `CC(C)(O)CN1CCN(C(=O)c2cccnc2O)CC1`
-4.14

Which Percent Effect is reported for this compound? `COc1ccc(C[C@H]2CN(C(=O)c3ccncc3)CC[C@@H]2OC)cc1`
11.4

Which Percent Effect is reported for this compound? `N#Cc1cccc(S(=O)(=O)NC(=O)COc2ccc3c(c2)CCC3)c1`
0.752

Which Percent Effect is reported for this compound? Cc1nc(CN(C)C2CCN(CCCOc3ccccc3)C2)no1 (stereo not drawn)
8.47

Which Percent Effect is reported for this compound? CN1CC(c2ccccc2)CC2(CCN(CC(=O)N(C)C)CC2)C1 (stereo not drawn)
-25

Which Percent Effect is reported for this compound? CNc1snc(C)c1C(=O)N1CCCC(n2nc(C)cc2C)C1 (stereo not drawn)
-7.89

Which Percent Effect is reported for this compound? `Cc1ccc(-c2nc(CCNC(=O)NC3CCN(C)CC3)co2)cc1`
9.37

Which Percent Effect is reported for this compound? `O=C(CC1CCCC1)N1C[C@@H]2CCN(c3cccnc3)C[C@@H]2C1`
35.3

Which Percent Effect is reported for this compound? `COc1ncccc1CNC(=O)c1cccnc1O`
-10.7

Which Percent Effect is reported for this compound? Cn1ncc2c1NC(=O)CC2c1ccc(O)cc1 (stereo not drawn)
30.7

Which Percent Effect is reported for this compound? `FC(F)(F)c1nc(NC2CCCC2)c2ccccc2n1`
45.1

Which Percent Effect is reported for this compound? `c1cc(-c2noc(CN3CCn4c(nnc4C4CC4)C3)n2)co1`
16.4

Which Percent Effect is reported for this compound? NC(=O)C1CCC(NC(=O)COc2ccc(Cl)c(Cl)c2)CC1 (stereo not drawn)
8.8

Which Percent Effect is reported for this compound? CNc1cc(C2CCCN2C(=O)c2ccc3oc(=O)n(C)c3c2)ccn1 (stereo not drawn)
-1.54

Which Percent Effect is reported for this compound? CNc1cncc(C2CCCN2Cc2c[nH]cn2)n1 (stereo not drawn)
5.77

Which Percent Effect is reported for this compound? `CO[C@@H]1CCN(C(=O)c2ccccn2)[C@H]1Cc1ccccc1`
8.74

Which Percent Effect is reported for this compound? CNC(=O)c1ccc(C2CN(C(=O)COC)CCO2)nc1 (stereo not drawn)
0.241

Which Percent Effect is reported for this compound? `CC(C)CNc1nc(C(=O)/N=c2\[nH]nc(C(C)(C)C)s2)cs1`
19.4

Which Percent Effect is reported for this compound? `CC(C)CN(Cc1nc2c(cnn2C)c(=O)[nH]1)C(C)C`
-18.2

Which Percent Effect is reported for this compound? `Cn1ccc(C(=O)NCc2cccc(NC(=O)C3CCC3)c2)cc1=O`
12

Which Percent Effect is reported for this compound? `O=C(Cn1cc(-c2ccccc2)ncc1=O)Nc1ccncc1`
-4.45

Which Percent Effect is reported for this compound? COCCc1noc(CN2CCCCC2Cn2nc(C)cc2C)n1 (stereo not drawn)
-5.82

Which Percent Effect is reported for this compound? CCOC1COC2(CCN(Cc3cccc(F)c3)CC2)C1 (stereo not drawn)
21.4

Which Percent Effect is reported for this compound? CC(O)(CN1CCC2(CC1)OCCO2)c1cccc(C(F)(F)F)c1 (stereo not drawn)
18.4

Which Percent Effect is reported for this compound? CCc1nc(C2CCCN2C(=O)c2ccc3c(c2)nc(C)n3C)no1 (stereo not drawn)
7.34

Which Percent Effect is reported for this compound? CCCC(=O)N1CCC2(CC1)CC(NC(C)=O)c1ccccc1O2 (stereo not drawn)
6.03

Which Percent Effect is reported for this compound? `O=C(c1ncccn1)N1C[C@H]2CCC[C@@]2(COCc2cccnc2)C1`
89.1

Which Percent Effect is reported for this compound? NC[C@H]1CC[C@H](C(NC(=O)c2ccccc2)c2ccccn2)CC1 (stereo partly drawn)
-1.97

meta.source: ChEMBL document CHEMBL3988442
